assay: xn = mol fraction of the nth substance listed; conditions: 298.15 K; 101 kPa; Liquid; Vibrating tube method; x1 = 0.25
Value Type: mass density (kg/m3)

Compound	Readout Units	Value Measured
C[P+](c1ccccc1)(c1ccccc1)c1ccccc1.[Br-] [methyltriphenylphosphonium bromide] + OCCOCCOCCO	kg/m3	1216.4
C[P+](c1ccccc1)(c1ccccc1)c1ccccc1.[Br-] [methyltriphenylphosphonium bromide] + OCCO	kg/m3	1250.4
CCN(CC)CCO.Cl [2-(diethylamino)ethanol hydrochloride] + OCCO	kg/m3	1101.8
C[P+](c1ccccc1)(c1ccccc1)c1ccccc1.[Br-] [methyltriphenylphosphonium bromide] + OCC(O)CO	kg/m3	1298

###

assay: xn = mol fraction of the nth substance listed; conditions: 298.15 K; 101 kPa; Liquid; Vibrating tube method; x1 = 0.2
Value Type: mass density (kg/m3)

Compound	Readout Units	mass density
C[P+](c1ccccc1)(c1ccccc1)c1ccccc1.[Br-] [methyltriphenylphosphonium bromide] + OCCOCCOCCO	kg/m3	1199.2
CCN(CC)CCO.Cl [2-(diethylamino)ethanol hydrochloride] + OCCO	kg/m3	1103.7
C[P+](c1ccccc1)(c1ccccc1)c1ccccc1.[Br-] [methyltriphenylphosphonium bromide] + OCCO	kg/m3	1233
C[P+](c1ccccc1)(c1ccccc1)c1ccccc1.[Br-] [methyltriphenylphosphonium bromide] + OCC(O)CO	kg/m3	1289.3

###

test: refractive index (Na D-line) (dimensionless); xn = mol fraction of the nth substance listed; conditions: 298.15 K; 101 kPa; Liquid; Standard Abbe refractometry; x1 = 0.2
Value Type: refractive index

Compound	refractive index
C[P+](c1ccccc1)(c1ccccc1)c1ccccc1.[Br-] [methyltriphenylphosphonium bromide] + OCCOCCOCCO	1.5263
CCN(CC)CCO.Cl [2-(diethylamino)ethanol hydrochloride] + OCCO	1.4574
C[P+](c1ccccc1)(c1ccccc1)c1ccccc1.[Br-] [methyltriphenylphosphonium bromide] + OCCO	1.553
C[P+](c1ccccc1)(c1ccccc1)c1ccccc1.[Br-] [methyltriphenylphosphonium bromide] + OCC(O)CO	1.5597

###

assay: refractive index (Na D-line) (dimensionless); xn = mol fraction of the nth substance listed; details: 298.15 K; 101 kPa; Liquid; Standard Abbe refractometry; x1 = 0.25
Value Type: refractive index

Molecule	refractive index
C[P+](c1ccccc1)(c1ccccc1)c1ccccc1.[Br-] [methyltriphenylphosphonium bromide] + OCCOCCOCCO	1.5417
C[P+](c1ccccc1)(c1ccccc1)c1ccccc1.[Br-] [methyltriphenylphosphonium bromide] + OCCO	1.5678
C[N+](C)(C)CCO.[Cl-] [choline chloride] + OCC(O)CO	1.4818
C[P+](c1ccccc1)(c1ccccc1)c1ccccc1.[Br-] [methyltriphenylphosphonium bromide] + OCC(O)CO	1.5715
CCN(CC)CCO.Cl [2-(diethylamino)ethanol hydrochloride] + OCCO	1.462
